Consider the following compounds; for each one, report its remaining at 5.5 h, 10 μmolar.
Assay: Stability of conjugates in nude mouse blood
Assay type: in vitro ADME
Conditions: fresh heparinized whole nude mouse blood, 37° C., read-out: Conjugate Stability in Blood After 5.5 Hours (Percent of Control (In Buffer, T = 0)), Nude Mouse Blood
Method: The stability of doxorubicin conjugated peptides in human or nude mouse blood was evaluated by reverse phase HPLC with fluorescence detection after an 80% acetonitrile extraction. […] A scanning fluorescence detector (# 474, Waters Corp) monitoring 480 nm excitation, 580 nm emission quantitates AUC of peaks of interest; mass is extrapolated from a standard curve generated under matching conditions.
Residues, ends and D or L forms follow the SMILES beside them. *: point of attachment. Doxorubicin(3'-N) = COc1cccc2c1C(=O)c1c(O)c3c(c(O)c1C2=O)C[C@@](O)(C(=O)CO)C[C@@H]3O[C@H]1C[C@H](N*)[C@H](O)[C@H](C)O1
Answers are plain numbers, in %.

COc1cccc2c1C(=O)c1c(O)c3c(c(O)c1C2=O)C[C@@](O)(C(=O)CO)C[C@@H]3O[C@H]1C[C@H](NC(=O)[C@H](CC(C)C)NC(=O)[C@H](CC(C)C)NC(=O)CNC(=O)[C@H](CC(C)C)NC(=O)[C@@H]2CCCN2C(=O)CNC(C)=O)[C@H](O)[C@H](C)O1 [Ac-GPLG-LL-Dox, acetyl-G-P-L-G-L-L-Dox] (Ac-GPLGLL-{Doxorubicin(3'-N)}) : 25.8

Now take the following compound into account.
input: Can you look up the measured remaining at 5.5 h, 10 μmolar of COc1cccc2c1C(=O)c1c(O)c3c(c(O)c1C2=O)C[C@@](O)(C(=O)CO)C[C@@H]3O[C@H]1C[C@H](NC(=O)[C@H](CC(C)C)NC(=O)[C@H](C)NC(=O)[C@H](CC(C)C)NC(=O)CNC(=O)[C@H](CC(C)C)NC(=O)[C@@H]2CCCN2C(=O)CNC(C)=O)[C@H](O)[C@H](C)O1 [Ac-GPLG-LAL-Dox, acetyl-G-P-L-G-L-A-L-Dox] (Ac-GPLGLAL-{Doxorubicin(3'-N)}) for me?
output: 5.8

---

Consider the following compounds; for each one, report its remaining at 5.5 h, 10 μmolar.
assay: Stability of conjugates in human blood; assay type: in vitro ADME; conditions: fresh heparinized whole human blood, 37° C., read-out: Conjugate Stability in Blood After 5.5 Hours (Percent of Control (In Buffer, T = 0)), Human Blood
Residues, ends and D or L forms follow the SMILES beside them. *: point of attachment. Doxorubicin(3'-N) = COc1cccc2c1C(=O)c1c(O)c3c(c(O)c1C2=O)C[C@@](O)(C(=O)CO)C[C@@H]3O[C@H]1C[C@H](N*)[C@H](O)[C@H](C)O1
Give bare numbers, in %.

Answered cases to consult:
COc1cccc2c1C(=O)c1c(O)c3c(c(O)c1C2=O)C[C@@](O)(C(=O)CO)C[C@@H]3O[C@H]1C[C@H](NC(=O)[C@H](CC(C)C)NC(=O)[C@H](CC(C)C)NC(=O)CNC(=O)[C@H](CC(C)C)NC(=O)[C@@H]2CCCN2C(=O)CNC(C)=O)[C@H](O)[C@H](C)O1 [Ac-GPLG-LL-Dox, acetyl-G-P-L-G-L-L-Dox] (Ac-GPLGLL-{Doxorubicin(3'-N)}) : 42.6
COc1cccc2c1C(=O)c1c(O)c3c(c(O)c1C2=O)C[C@@](O)(C(=O)CO)C[C@@H]3O[C@H]1C[C@H](NC(=O)[C@H](CC(C)C)NC(=O)[C@H](C)NC(=O)[C@H](CC(C)C)NC(=O)CNC(=O)[C@H](CC(C)C)NC(=O)[C@@H]2CCCN2C(=O)CNC(C)=O)[C@H](O)[C@H](C)O1 [Ac-GPLG-LAL-Dox, acetyl-G-P-L-G-L-A-L-Dox] (Ac-GPLGLAL-{Doxorubicin(3'-N)}) : 15.4

Now take the following compound into account.
input: Can you look up the measured remaining at 5.5 h, 10 μmolar of COc1cccc2c1C(=O)c1c(O)c3c(c(O)c1C2=O)C[C@@](O)(C(=O)CO)C[C@@H]3O[C@H]1C[C@H](NC(=O)[C@H](CC(C)C)NC(=O)[C@H](C)NC(=O)[C@H](CC(C)C)NC(=O)[C@H](CC(C)C)NC(=O)CNC(=O)[C@H](CC(C)C)NC(=O)[C@@H]2CCCN2C(C)=O)[C@H](O)[C@H](C)O1 [Ac-PLG-LLAL-Dox, acetyl -P-L-G-L-L-A-L-Dox] (Ac-PLGLLAL-{Doxorubicin(3'-N)}) for me?
output: 55.6

Source of measurements: patent US6844318B2
